The values you see were collected from PubChem BioAssay (Tox21).

Experiment: qHTS assay to identify small molecule agonists of the peroxisome proliferator-activated receptor delta (PPARd) signaling pathway - cell viability counter screen (AID 743211); also: nearly all actives have a fitted effect of over 55% in size
Settings: PPARd-bla HEK293H viability, CellTiter-Glo luminescence, 17 h; series mostly up to 62.6 µM
Excerpt: U.S. Tox21 Program National Center for Advancing Translational Sciences [NCATS] NIH Chemical Genomics Center [NCGC] U.S. Environmental Protection Agency [EPA] National Institutes of Environmental Health Sciences [NIEHS] National Toxicology Program [NTP] U.S. Food and Drug Administration [FDA] […]
Records with an inconclusive call do not appear. Calls of active or inactive are those of the source. Calls follow the shape of the dose curve; as a rule, active = well fitted cell-killing curve with a large enough effect in the repeat runs; inconclusive = weak or mixed curves; inactive = no such curve, though single readings can be large or run the other way.
Classes to choose from: true (1) for active, false (0) for inactive

## Task Please state the recorded outcome for this molecule: CO/N=C(\C(=O)OC)c1ccccc1CO/N=C(\C)c1cccc(C(F)(F)F)c1
## Result true (1)

## Task What was the test verdict on OCC(Br)CBr (centres undefined) ?
## Result false (0)

## Task Record request — test call for O=C(Nc1ccc(F)cc1F)c1cccnc1Oc1cccc(C(F)(F)F)c1
## Result false (0)

## Task Test call for this molecule, please: c1ccc2c(c1)cc1ccc3cccc4ccc2c1c34
## Result false (0)

## Task # fetch the recorded call for Cc1ccc(C)c2ccccc12 here
## Result false (0)

## Task Dear colleague, could you share the recorded outcome for O=C(Cl)c1ccccc1F when you have a moment?
## Result false (0)

## Task What outcome does the record of this test show for CSSC ?
## Result false (0)

## Task Name the outcome recorded for COC(=O)/C=C(\C)OP(=O)(OC)OC in the assay.
## Result false (0)

## Task Could you check what this test reported for C=Cc1cccc(CCl)c1 ?
## Result false (0)

## Task Recorded test outcome, item CCCCN(CCCC)C(=S)S
## Result false (0)

## Task For Clc1ccc(C(c2ccc(Cl)cc2)C(Cl)Cl)cc1 , what call appears in the results of this test?
## Result true (1)

## Task Please share the test call associated with C[C@]12C/C(=C/O)C(=O)C[C@@H]1CC[C@@H]1[C@@H]2CC[C@@]2(C)[C@H]1CC[C@]2(C)O .
## Result true (1)

## Task Please let me know the test result on file for Brc1ccc(Oc2ccc(Br)cc2Br)c(Br)c1 .
## Result true (1)

## Task Outcome logged for O=Cc1ccccc1 in this assay:
## Result false (0)
